Test: Simulated intestinal fluid (SIF) stability in the presence of various enzymes
Format: in vitro ADME
Conditions: simulated intestinal fluid with trypsin, pH 6.8, SIF + Trypsin; read-out: Half-life
half-life at 1 μM values, listed per item
propertyName: half-life at 1 μM (min)

CCCCCCCCCCCCCCCC(=O)NCCOC(=O)CCC(=O)OC(COC(=O)CCC)COC(=O)CCC [Compound I-16]; 85
CCCCCCCCCCCCCCCC(=O)NCCOC(=O)CCC(=O)OC(CO)CO [Compound I-8]; 25

====

Assay: Plasma stability (37° C., pH 7.4), mouse
Assay type: in vitro ADME, CD-1 mouse
Conditions: mouse plasma, test article 1 μM, 37° C., pH 7.4, 30 min
Criterion: % Remaining of Initial (n = 1), 30 min strictly under 20%. Met: YES. Not met: NO.

CCCCCCCCCCCCCCCC(=O)NCCOC(=O)CCC; NO
CC/C=C\C/C=C\C/C=C\C/C=C\C/C=C\CCCC(=O)OCCNC(=O)CCCCCCCCCCCCCCC; NO
CCCCCCCCCCCCCCCC(=O)NCCOC(=O)CCC(=O)OCC(COC(=O)CCCCCCC)OC(=O)CCCCCCC (stereo not shown) [Compound I-3, PEA-Succinate-Glycerol-Di-Caprylic]; NO
CCCCCCCCCCCCCCCC(=O)NCCOC(=O)CCC(=O)OC[C@H]1O[C@@](CO)(O[C@H]2O[C@H](CO)[C@@H](O)[C@H](O)[C@H]2O)[C@@H](O)[C@@H]1O; YES
CCCCC/C=C\C/C=C\CCCCCCCC(=O)OCCNC(=O)CCCCCCCCCCCCCCC; NO
CCCCCCCCCCCCCCCC(=O)NCCOC(=O)CCC(=O)OCC(COC(=O)CCC)OC(=O)CCC (stereo not shown); YES
CCCCCCCCCCCCCCCC(=O)NCCOC(=O)CCC(=O)OCC(O)CO (stereo not shown); YES
